Target: G protein-coupled receptor 88 (Homo sapiens, UniProt Q9GZN0)
Sequence (Q9GZN0 whole entry): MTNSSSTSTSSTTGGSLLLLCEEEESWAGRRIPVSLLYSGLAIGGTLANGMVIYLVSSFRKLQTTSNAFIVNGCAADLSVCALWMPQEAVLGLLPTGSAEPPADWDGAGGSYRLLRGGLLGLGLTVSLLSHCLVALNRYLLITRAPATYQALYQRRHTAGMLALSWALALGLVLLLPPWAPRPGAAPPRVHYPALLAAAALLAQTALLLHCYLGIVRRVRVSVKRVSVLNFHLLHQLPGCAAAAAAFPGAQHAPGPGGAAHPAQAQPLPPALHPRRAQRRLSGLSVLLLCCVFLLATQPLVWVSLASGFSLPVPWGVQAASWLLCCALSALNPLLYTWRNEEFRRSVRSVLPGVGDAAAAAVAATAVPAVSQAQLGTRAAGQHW
Assay: Agonist activity at GPR88 (unknown origin) transfected into cells assessed as cAMP accumulation by HTRF assay
Assay type: functional
PROPERTY LABEL: EC50 (nM)
Answers are plain numbers, in nM.

Below are worked cases with known answers.
1) CC[C@H](C)[C@H](N)CN(C(=O)[C@@H]1C[C@H]1c1cncnc1)c1ccc(-c2ccccc2)cc1 = 19000
2) CC[C@H](C)[C@H](N)CN(C(=O)[C@@H]1C[C@H]1c1ccccc1)c1ccc(-c2ccccc2)cc1 = 230

Hey, can you go through the list below and give me EC50 for every item?
1. Cc1cccc(-c2ccc(N(C[C@@H](N)CC(C)C)C(=O)[C@@H]3C[C@H]3c3ccccc3)cc2)c1
2. CCC(C)CNCCN(C(=O)[C@@H]1C[C@H]1c1ccccc1)c1ccc(-c2ccccc2)cc1 (some centres undefined)

1200
4.7

====

Biological target: G protein-coupled receptor 88 (Homo sapiens)
Assay: Agonist activity at GPR88 (unknown origin) transfected into cells assessed as cAMP accumulation by HTRF assay
Would you mind telling me the reported pEC50 of each entry?
Give bare numbers, as −log10 of the molar value.

Hey, can you go through the list below and give me pEC50 for every item?
1. CC[C@H](C)[C@H](N)CN(C(=O)[C@@H]1C[C@H]1c1cccc(F)c1)c1ccc(-c2ccccc2)cc1
2. CC[C@H](C)[C@H](N)CN(C(=O)[C@@H]1C[C@H]1c1nccs1)c1ccc(-c2ccccc2)cc1
3. CC[C@H](C)[C@H](N)CN(C(=O)[C@H]1C[C@@H]1c1ccccn1)c1ccc(-c2ccc(COC)cc2)cc1
4. Cc1ccccc1-c1ccc(N(C[C@@H](N)CC(C)C)C(=O)[C@@H]2C[C@H]2c2ccccc2)cc1
5. O=C([C@@H]1C[C@H]1c1ccccc1)N(CC1CCCNC1)c1ccc(-c2ccccc2)cc1 (stereo partly specified)
6. CC(C)C[C@H](N)CN(C(=O)[C@@H]1C[C@H]1c1ccccc1)c1ccc(C2=CCCCCC2)cc1
7. CC[C@H](C)[C@H](N)CN(C(=O)[C@@H]1C[C@H]1c1ccccc1)c1ccc(-c2ccc(COC(C)(C)C)cc2)cc1

[6.25, 6.68, 5.92, 5.47, 8.00, 5.68, 6.55]

Hey, can you go through the list below and give me pEC50 for every item?
1. COc1cccc(-c2ccc(N(C[C@@H](N)CC(C)C)C(=O)[C@@H]3C[C@H]3c3ccccc3)cc2)c1
2. CC[C@H](C)[C@H](N)CN(C(=O)[C@@H]1C[C@H]1c1cc(F)cc(F)c1)c1ccc(-c2ccccc2)cc1
3. CC[C@H](C)[C@H](N)CN(C(=O)[C@@H]1C[C@H]1c1ccc(Cl)cc1)c1ccc(-c2ccccc2)cc1
4. CC[C@H](C)[C@H](N)CN(C(=O)[C@@H]1C[C@H]1c1ccccc1)c1ccc(-c2ccc(COC)cc2)cc1
5. CC[C@H](C)[C@H](N)CN(C(=O)[C@@H]1C[C@H]1c1ccccn1)c1ccc(-c2ccc(OC(C)C)cc2)cc1
6. CC(C)C[C@H](N)CN(C(=O)[C@@H]1C[C@H]1c1ccccc1)c1ccc(-c2cccc(F)c2)cc1
7. CC[C@H](C)[C@H](N)CN(C(=O)[C@@H]1C[C@H]1c1ccccc1)c1ccc(-c2ccc(CC(=O)OC)cc2)cc1

[5.96, 6.02, 5.37, 7.46, 8.46, 5.68, 7.18]

Tell me measured pEC50 for CC(C)C[C@H](N)CN(C(=O)C(C)Cc1ccccc1)c1ccc(-c2ccccc2)cc1 (stereo partly specified) please.
8.92
